# target-entity: JAK3 kinase (Homo sapiens (Human), UniProt P52333)
# Sequence (P52333 whole entry): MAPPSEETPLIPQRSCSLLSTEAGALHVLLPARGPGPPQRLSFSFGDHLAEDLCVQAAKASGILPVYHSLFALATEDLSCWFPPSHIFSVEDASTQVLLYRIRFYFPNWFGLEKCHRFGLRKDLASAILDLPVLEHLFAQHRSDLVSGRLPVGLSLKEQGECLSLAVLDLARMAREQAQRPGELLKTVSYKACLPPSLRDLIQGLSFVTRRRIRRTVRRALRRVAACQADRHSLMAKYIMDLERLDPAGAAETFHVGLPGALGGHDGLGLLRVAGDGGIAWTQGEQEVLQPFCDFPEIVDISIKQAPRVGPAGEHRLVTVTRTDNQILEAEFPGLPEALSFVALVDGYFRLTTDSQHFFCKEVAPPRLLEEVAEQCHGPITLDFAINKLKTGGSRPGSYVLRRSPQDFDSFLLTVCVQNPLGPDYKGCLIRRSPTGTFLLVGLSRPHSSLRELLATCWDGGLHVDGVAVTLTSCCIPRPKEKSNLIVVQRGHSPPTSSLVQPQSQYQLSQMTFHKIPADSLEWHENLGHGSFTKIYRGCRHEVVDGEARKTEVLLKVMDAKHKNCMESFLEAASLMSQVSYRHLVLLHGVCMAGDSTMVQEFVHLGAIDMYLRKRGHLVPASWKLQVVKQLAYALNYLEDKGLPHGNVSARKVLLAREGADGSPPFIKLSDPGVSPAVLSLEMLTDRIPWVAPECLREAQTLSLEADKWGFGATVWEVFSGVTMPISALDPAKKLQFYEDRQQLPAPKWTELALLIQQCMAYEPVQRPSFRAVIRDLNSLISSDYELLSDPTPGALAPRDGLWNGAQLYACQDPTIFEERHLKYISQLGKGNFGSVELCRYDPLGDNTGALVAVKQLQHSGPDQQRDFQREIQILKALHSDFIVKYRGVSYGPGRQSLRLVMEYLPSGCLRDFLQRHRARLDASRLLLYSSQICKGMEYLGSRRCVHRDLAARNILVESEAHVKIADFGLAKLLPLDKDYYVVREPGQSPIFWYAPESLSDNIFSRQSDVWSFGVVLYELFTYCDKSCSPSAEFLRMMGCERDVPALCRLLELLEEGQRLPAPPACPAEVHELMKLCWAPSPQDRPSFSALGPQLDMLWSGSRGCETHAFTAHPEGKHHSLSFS
# experiment-notes: JAK3 Homogeneous Time Resolved Fluorescence (HTRF) Assay
# Format: binding
# stated-conditions: competition binding with fluorescein-labeled ATP competitive probe
Reported IC50 values follow for various compounds
assay-metric: IC50

chemical-string: CC(C)Nc1c(C(=O)NC[C@@H](F)C(C)(C)O)cnc2cc(-c3cc[nH]c(=O)c3)nn12
assay-metric: IC50
test-result: > 50 µM

chemical-string: CC(C)Nc1c(C(=O)NC[C@@H](F)C(C)(C)O)cnn2cc(-c3ccc(F)cc3)cc12
assay-metric: IC50
test-result: > 50 µM

chemical-string: Nc1c(C(=O)NCCN2CCOCC2)cnn2cc(-c3ccncc3F)cc12
assay-metric: IC50
test-result: > 50 µM

chemical-string: CC(C)Nc1c(C(=O)N[C@H]2CC[C@H](c3nc[nH]n3)CC2)cnn2cc(-c3ccncc3F)cc12
assay-metric: IC50
test-result: > 50 µM

chemical-string: CC(C)Nc1c(C(=O)NC[C@@H](F)C(C)(C)O)cnn2cc(-c3cccnc3F)nc12
assay-metric: IC50
test-result: > 50 µM

chemical-string: CC(=O)N[C@H]1CC[C@H](NC(=O)c2cnn3cc(-c4ccc(C#N)cc4)cc3c2NC(C)C)CC1
assay-metric: IC50
test-result: > 50 µM

chemical-string: CC(C)Nc1c(C(=O)NC[C@@H](F)C(C)(C)O)cnc2cc(-c3cccc(Cl)n3)nn12
assay-metric: IC50
test-result: > 10 µM

chemical-string: CC(C)Nc1c(C(=O)NC[C@@H](F)C(C)(C)O)cnn2cc(-c3ccncc3F)cc12
assay-metric: IC50
test-result: > 50 µM

chemical-string: CC(C)Nc1c(C(=O)N[C@H]2CC[C@H](N)CC2)cnn2cc(-c3ccncc3)cc12
assay-metric: IC50
test-result: > 50 µM

chemical-string: CC(=O)N[C@H]1CC[C@H](NC(=O)c2cnn3cc(-c4ccncc4)cc3c2NC(C)C)CC1
assay-metric: IC50
test-result: ~39 µM

chemical-string: CC(C)Nc1c(C(=O)N[C@H]2C[C@H](C(C)(C)O)C2)cnn2cc(-c3ccc(F)nc3)nc12
assay-metric: IC50
test-result: > 50 µM

chemical-string: CC(C)Nc1c(C(=O)NC[C@@H](F)C(C)(C)O)cnn2cc(-n3ncc4cc(C#N)cnc43)cc12
assay-metric: IC50
test-result: > 50 µM

chemical-string: Cc1ncccc1-c1cc2ncc(C(=O)NC[C@@H](F)C(C)(C)O)c(NC(C)C)n2n1
assay-metric: IC50
test-result: > 50 µM

chemical-string: CC(=O)N[C@H]1CC[C@H](NC(=O)c2cnn3cc(-c4cccnc4)cc3c2NC(C)C)CC1
assay-metric: IC50
test-result: > 50 µM

chemical-string: Cc1cc(F)ncc1-c1cn2ncc(C(=O)N[C@H]3C[C@H](C(C)(C)O)C3)c(NC(C)C)c2n1
assay-metric: IC50
test-result: > 50 µM

chemical-string: CC(C)Nc1c(C(=O)NC[C@@H](F)C(C)(C)O)cnn2cc(-c3ccnn3C)cc12
assay-metric: IC50
test-result: > 50 µM

====

# target-entity: JAK3 kinase (Homo sapiens (Human), UniProt P52333)
# experiment-notes: JAK3 Homogeneous Time Resolved Fluorescence (HTRF) Assay
# Type: binding
# stated-conditions: selectivity for IRAK4 over JAK3
Reported Ratio of JAK3 IC50 to IRAK4 IC50 values follow for various compounds

chemical-string: CC(C)Nc1c(C(=O)NC[C@@H](F)C(C)(C)O)cnc2cc(-c3ccccc3)nn12
target-entity: JAK3 kinase (Homo sapiens (Human), UniProt P52333)
Ratio of JAK3 IC50 to IRAK4 IC50: >175
//
chemical-string: CC(=O)N[C@H]1CC[C@H](NC(=O)c2cnn3cc(-c4cn[nH]c4)cc3c2NC(C)C)CC1
target-entity: JAK3 kinase (Homo sapiens (Human), UniProt P52333)
Ratio of JAK3 IC50 to IRAK4 IC50: >4545
//
chemical-string: CC(C)Nc1c(C(=O)NCCN2CCOCC2)cnn2cc(-c3ccncc3F)cc12
target-entity: JAK3 kinase (Homo sapiens (Human), UniProt P52333)
Ratio of JAK3 IC50 to IRAK4 IC50: 972
//
chemical-string: CC(C)Nc1c(C(=O)NC[C@@H](F)C(C)(C)O)cnn2cc(-c3ccnn3C)cc12
target-entity: JAK3 kinase (Homo sapiens (Human), UniProt P52333)
Ratio of JAK3 IC50 to IRAK4 IC50: >1923
//
chemical-string: CC(C)Nc1c(C(=O)NC[C@@H](F)C(C)(C)O)cnn2cc(-c3ccc(N)nc3)cc12
target-entity: JAK3 kinase (Homo sapiens (Human), UniProt P52333)
Ratio of JAK3 IC50 to IRAK4 IC50: ~3671
//
chemical-string: CC(C)Nc1c(C(=O)NC[C@@H](F)C(C)(C)O)cnn2cc(-n3ncc4cc(C#N)cnc43)cc12
target-entity: JAK3 kinase (Homo sapiens (Human), UniProt P52333)
Ratio of JAK3 IC50 to IRAK4 IC50: >2381
//
chemical-string: CC(C)Nc1c(C(=O)NCCC(C)(C)O)cnn2cc(-c3cn[nH]c3)nc12
target-entity: JAK3 kinase (Homo sapiens (Human), UniProt P52333)
Ratio of JAK3 IC50 to IRAK4 IC50: >556
//
chemical-string: COc1cc(-c2cc3c(NC(C)C)c(C(=O)N[C@H]4CC[C@H](O)CC4)cnn3c2)c(F)cn1
target-entity: JAK3 kinase (Homo sapiens (Human), UniProt P52333)
Ratio of JAK3 IC50 to IRAK4 IC50: >2500
//
chemical-string: CC(C)Nc1c(C(=O)NC[C@@H](F)C(C)(C)O)cnc2cc(-n3ccccc3=O)nn12
target-entity: JAK3 kinase (Homo sapiens (Human), UniProt P52333)
Ratio of JAK3 IC50 to IRAK4 IC50: >86
//
chemical-string: CC(C)(O)[C@H](F)CNC(=O)c1cnn2cc(-c3cccnc3)cc2c1NC1CCCC1
target-entity: JAK3 kinase (Homo sapiens (Human), UniProt P52333)
Ratio of JAK3 IC50 to IRAK4 IC50: >182
//
chemical-string: CC(C)Nc1c(C(=O)NCCN2CCOCC2)cnn2cc(-c3ccncc3)cc12
target-entity: JAK3 kinase (Homo sapiens (Human), UniProt P52333)
Ratio of JAK3 IC50 to IRAK4 IC50: >4167
//
chemical-string: CC(C)Nc1c(C(=O)NC[C@@H](F)C(C)(C)O)cnn2cc(-c3cnn4cc(Cl)cnc34)cc12
target-entity: JAK3 kinase (Homo sapiens (Human), UniProt P52333)
Ratio of JAK3 IC50 to IRAK4 IC50: >254
//
chemical-string: CC(C)Nc1c(C(=O)NC[C@@H](F)C(C)(C)O)cnc2cc(-c3cccc(C#N)c3)nn12
target-entity: JAK3 kinase (Homo sapiens (Human), UniProt P52333)
Ratio of JAK3 IC50 to IRAK4 IC50: >15
//
chemical-string: CC(C)Nc1c(C(=O)NC[C@@H](F)C(C)(C)O)cnn2cc(-c3ccncc3F)cc12
target-entity: JAK3 kinase (Homo sapiens (Human), UniProt P52333)
Ratio of JAK3 IC50 to IRAK4 IC50: >14286
//
chemical-string: COC(=O)N[C@H]1CC[C@H](NC(=O)c2cnn3cc(-c4ccncc4)cc3c2NC(C)C)CC1
target-entity: JAK3 kinase (Homo sapiens (Human), UniProt P52333)
Ratio of JAK3 IC50 to IRAK4 IC50: >17857
//
chemical-string: Cc1cc(F)ncc1-c1cc2c(NCCC(C)(C)O)c(C(=O)NC[C@@H](F)C(C)(C)O)cnn2c1
target-entity: JAK3 kinase (Homo sapiens (Human), UniProt P52333)
Ratio of JAK3 IC50 to IRAK4 IC50: >71

====

Recorded below: IC50, system IRAK4 (Homo sapiens (Human), UniProt Q9NWZ3).
assay-metric: IC50 (nM)

compound: CC(C)Nc1c(C(=O)NC[C@@H](F)C(C)(C)O)cnc2cc(-c3cncc(C#N)c3)nn12 [Example 124]
test-result: 360
--
compound: CC(C)Nc1c(C(=O)NCCN2CCOCC2)cnn2cc(-c3cn[nH]c3)nc12 [Example 110]
test-result: 150
--
compound: Cc1cncc(-c2cc3ncc(C(=O)NC[C@@H](F)C(C)(C)O)c(NC(C)C)n3n2)c1 [Example 146]
test-result: 480
--
compound: CC(C)Nc1c(C(=O)NC[C@@H](F)C(C)(C)O)cnc2cc(-c3cccnc3)nn12 [Example 115]
test-result: 25
--
compound: Nc1c(C(=O)NCCN2CCOCC2)cnn2cc(-c3ccncc3F)cc12 [Example 79]
test-result: 110
--
compound: CC(=O)N[C@H]1CC[C@H](NC(=O)c2cnn3cc(-c4ccc(C#N)cc4)cc3c2NC(C)C)CC1 [Example 81]
test-result: 12
--
compound: CC(C)Nc1c(C(=O)NC[C@@H](F)C(C)(C)O)cnn2cc(Nc3ccc(C#N)cn3)cc12 [Example 40]
test-result: 240
--
compound: COc1cc(-c2cc3c(NC(C)C)c(C(=O)N[C@H]4CC[C@H](O)CC4)cnn3c2)c(F)cn1 [Example 57]
test-result: 20
--
compound: CC(=O)N[C@H]1CC[C@H](NC(=O)c2cnn3c(Cl)c(-c4ccncc4)cc3c2NC(C)C)CC1 [Example 80]
test-result: 2
--
compound: CC(C)Nc1c(C(=O)NCCN2CCOCC2)cnn2cc(-c3ccncc3F)cc12 [Example 71]
test-result: 7.2
--
compound: CC(C)Nc1c(C(=O)NC[C@@H](F)C(C)(C)O)cnc2cc(-c3cccc(C#N)c3)nn12 [Example 133]
test-result: 130
--
compound: CC(C)Nc1c(C(=O)NC[C@@H](F)C(C)(C)O)cnn2cc(-c3ccc(F)cn3)cc12 [Example 18]
test-result: 12
--
compound: CC(C)Nc1c(C(=O)NCCC(C)(C)O)cnn2cc(-c3cn[nH]c3)nc12 [Example 107]
test-result: 90
--
compound: CC(C)Nc1c(C(=O)NC[C@@H](F)C(C)(C)O)cnc2cc(-c3cncnc3)nn12 [Example 127]
test-result: 170
--
compound: Cc1cc(F)ncc1-c1cc2c(NC(C)C)c(C(=O)NC3CCN(S(C)(=O)=O)CC3)cnn2c1 [Example 86]
test-result: 46
--
compound: CC(C)Nc1c(C(=O)NC[C@@H](F)C(C)(C)O)cnn2cc(-n3ncc4cncnc43)cc12 [Example 37]
test-result: 3.8
